All figures here come from patent US20080262014A1.

- TEST DESCRIPTION: clinical
- Parameters: species or system patients
- CONDITION NOTES: human, in vivo, iv
ASSAY READOUT: AUC at 1 cycle

GET /value?item= `CC[C@@]1(O)C(=O)OCc2c1cc1n(c2=O)Cc2c-1nc1ccccc1c2/C=N/OC(C)(C)C` &field=AUC at 1 cycle returns 5000 to 10000 ng·h/mL
